Details: human gut metagenome, 24 h, 2 µM; further: call rule not given here
OBSERVED PROPERTY: Bacterial Biotransformation

Known results for molecules:
MOLECULE: CC(C)(C)NCC(O)c1cc(Cl)c(N)c(Cl)c1 (stereo unspecified)
RESULT: Compound NOT metabolized
//
MOLECULE: CCN1CCCC1CNC(=O)c1cc(S(=O)(=O)CC)c(N)cc1OC (stereo unspecified) [AMISULPRIDE]
RESULT: Compound NOT metabolized
//
MOLECULE: Cc1nc(Nc2ncc(C(=O)Nc3c(C)cccc3Cl)s2)cc(N2CCN(CCO)CC2)n1 [DASATINIB ANHYDROUS]
RESULT: Compound metabolized
//
MOLECULE: C[C@]12CCC(=O)C=C1[C@@H]1C[C@@H]1[C@H]1[C@@H]3[C@@H]4C[C@@H]4[C@@]4(CCC(=O)O4)[C@@]3(C)CC[C@@H]12
RESULT: Compound metabolized
//
MOLECULE: CCN(CC)C(=O)C1(c2ccccc2)CC1CN (stereo unspecified)
RESULT: Compound NOT metabolized
//
MOLECULE: CC(=O)Oc1ccc(C(c2ccc(OC(C)=O)cc2)c2ccccn2)cc1
RESULT: Compound metabolized

Give the measured Bacterial Biotransformation of C=C[C@H]1CN2CC[C@H]1C[C@H]2[C@H](O)c1ccnc2ccc(OC)cc12.C=C[C@H]1CN2CC[C@H]1C[C@H]2[C@H](O)c1ccnc2ccc(OC)cc12.O.O.O=S(=O)(O)O [QUININE SULFATE] .
Compound NOT metabolized

Name the recorded Bacterial Biotransformation for Cc1ccccc1C(OCCN(C)C)c1ccccc1.O=C(O)CC(O)(CC(=O)O)C(=O)O (stereo unspecified) [ORPHENADRINE CITRATE] .
Compound NOT metabolized

Given COc1ccc(CN2CCNCC2)c(OC)c1OC.Cl.Cl [TRIMETAZIDINE DIHYDROCHLORIDE] , state its recorded Bacterial Biotransformation.
Compound NOT metabolized

* * *

Conditions: human gut metagenome, 24 h, 2 µM
OBSERVED PROPERTY: Bacterial Biotransformation

For orientation, consider the following solved cases.
COMPOUND: COc1ccc(Cc2nccc3cc(OC)c(OC)cc23)cc1OC
RESULT: Compound NOT metabolized
--
COMPOUND: CCCCC(=O)O[C@]1(C(=O)CO)[C@@H](C)C[C@H]2[C@@H]3CCC4=CC(=O)C=C[C@]4(C)[C@@]3(F)[C@@H](O)C[C@@]21C [BETAMETHASONE VALERATE]
RESULT: Compound NOT metabolized
--
COMPOUND: COC(=O)[C@H](c1ccccc1Cl)N1CCc2sccc2C1.O=S(=O)(O)O [CLOPIDOGREL BISULFATE]
RESULT: Compound metabolized
--
COMPOUND: Nc1nc(N)nc(-c2cc(Cl)ccc2Cl)n1.O=C(O)/C=C\C(=O)O [IRSOGLADINE MALEATE]
RESULT: Compound NOT metabolized
--
COMPOUND: C[N+]12CCC(CC1)C(OC(=O)C(O)(c1ccccc1)c1ccccc1)C2.[Br-] (stereo not drawn) [CLIDINIUM BROMIDE]
RESULT: Compound metabolized
--
COMPOUND: CC[C@H](C)C(=O)O[C@H]1CCC=C2C=C[C@H](C)[C@H](CC[C@@H]3C[C@@H](O)CC(=O)O3)[C@H]21
RESULT: Compound NOT metabolized

Recorded Bacterial Biotransformation of N[C@@H](Cc1ccc(N(CCCl)CCCl)cc1)C(=O)O , please.
Compound metabolized

Reported Bacterial Biotransformation, compound CCS(=O)(=O)CCn1c([N+](=O)[O-])cnc1C : ____
Compound metabolized

* * *

Assay: The drug is tested on Z-004 corresponding to metagenome with ENA study accession number: PRJEB37062 and ENA sample accession number: ERS12561804 for biotransformation under anaerobic condition. The drug concentrations were measured over 9 timepoints collected between 0 and 24 hours of incubation by liquid-chromatography-coupled mass spectrometry (LC–MS)
Details: 2 µM
OBSERVED PROPERTY: Bacterial Biotransformation

MOLECULE: O=C(O)c1cc(/N=N/c2ccc(S(=O)(=O)Nc3ccccn3)cc2)ccc1O [SULFASALAZINE]
Bacterial Biotransformation: Compound metabolized

MOLECULE: CSc1ccc2c(c1)C(N1CCN(C)CC1)Cc1ccccc1S2.O=C(O)/C=C\C(=O)O (configuration not stated)
Bacterial Biotransformation: Compound metabolized

MOLECULE: CN(C)CCC=C1c2ccccc2COc2ccccc21 [DOXEPIN]
Bacterial Biotransformation: Compound NOT metabolized

MOLECULE: CCOc1cc(CC(=O)N[C@@H](CC(C)C)c2ccccc2N2CCCCC2)ccc1C(=O)O [REPAGLINIDE]
Bacterial Biotransformation: Compound metabolized

MOLECULE: CC(=O)Nc1ccc(OC(C)=O)cc1 [DIACETAMATE]
Bacterial Biotransformation: Compound metabolized

--- query ---
For the molecule shown here, O=C1CCc2ccc(OCCCCN3CCN(c4cccc(Cl)c4Cl)CC3)cc2N1 [ARIPIPRAZOLE] , give the reported Bacterial Biotransformation.
Compound NOT metabolized

* * *

Conditions: human gut metagenome, 24 h, 2 µM
OBSERVED PROPERTY: Bacterial Biotransformation

Known results for molecules:
MOLECULE: Br.CN1CCC[C@@H]1Cc1c[nH]c2ccc(CCS(=O)(=O)c3ccccc3)cc12 [ELETRIPTAN HYDROBROMIDE]
Bacterial Biotransformation: Compound NOT metabolized
--
MOLECULE: O=C(O)CCC(=O)O.O=C(O[C@H]1CN2CCC1CC2)N1CCc2ccccc2[C@@H]1c1ccccc1 [SOLIFENACIN SUCCINATE]
Bacterial Biotransformation: Compound NOT metabolized
--
MOLECULE: CC(C)[C@H]1CC[C@H](C(=O)N[C@H](Cc2ccccc2)C(=O)O)CC1 [NATEGLINIDE]
Bacterial Biotransformation: Compound metabolized
--
MOLECULE: C[N+]12CCC(CC1)C(OC(=O)C(O)(c1ccccc1)c1ccccc1)C2.[Br-] (configuration not stated) [CLIDINIUM BROMIDE]
Bacterial Biotransformation: Compound NOT metabolized
--
MOLECULE: CC#C[C@]1(O)CC[C@H]2[C@@H]3CCC4=CC(=O)CCC4=C3[C@@H](c3ccc(N(C)C)cc3)C[C@@]21C
Bacterial Biotransformation: Compound metabolized

What measured Bacterial Biotransformation goes with COc1ccc(CN2CCNCC2)c(OC)c1OC.Cl.Cl [TRIMETAZIDINE DIHYDROCHLORIDE] ?
Compound NOT metabolized

Item under review: N#Cc1ccc2[nH]cc(CCCCN3CCN(c4ccc5oc(C(N)=O)cc5c4)CC3)c2c1 . Reported Bacterial Biotransformation?
Compound metabolized

* * *

Details: human gut metagenome, 24 h, 2 µM
OBSERVED PROPERTY: Bacterial Biotransformation

COMPOUND: CSc1ccc2c(c1)C(N1CCN(C)CC1)Cc1ccccc1S2.O=C(O)/C=C\C(=O)O (stereo not given)
Bacterial Biotransformation: Compound NOT metabolized
--
COMPOUND: CN(C/C=C/C#CC(C)(C)C)Cc1cccc2ccccc12
Bacterial Biotransformation: Compound NOT metabolized
--
COMPOUND: CCc1cccc2c3c([nH]c12)C(CC)(CC(=O)O)OCC3 (stereo not given)
Bacterial Biotransformation: Compound metabolized
--
COMPOUND: CCS(=O)(=O)CCn1c([N+](=O)[O-])cnc1C
Bacterial Biotransformation: Compound metabolized

Let's switch to this compound now.
Quick one: Bacterial Biotransformation of Br.CN1CCC[C@@H]1Cc1c[nH]c2ccc(CCS(=O)(=O)c3ccccc3)cc12 [ELETRIPTAN HYDROBROMIDE] ?
Compound metabolized

* * *

Assay: The drug is tested on Z-023 corresponding to metagenome with ENA study accession number: PRJEB37062 and ENA sample accession number: ERS12561822 for biotransformation under anaerobic condition. The drug concentrations were measured over 9 timepoints collected between 0 and 24 hours of incubation by liquid-chromatography-coupled mass spectrometry (LC–MS)
Conditions: 2 µM

COMPOUND: CC[C@@]1(O)C(=O)OCc2c1cc1n(c2=O)Cc2cc3c(CN(C)C)c(O)ccc3nc2-1 [TOPOTECAN]
Bacterial Biotransformation: Compound NOT metabolized
//
COMPOUND: Br.COc1ccc2c(c1)[C@]13CCCC[C@@H]1[C@H](C2)N(C)CC3.O [DEXTROMETHORPHAN HYDROBROMIDE]
Bacterial Biotransformation: Compound metabolized
//
COMPOUND: C#C[C@]1(OC(C)=O)CC[C@H]2[C@@H]3CCC4=C[C@@H](OC(C)=O)CC[C@@H]4[C@H]3CC[C@@]21C [ETHYNODIOL DIACETATE]
Bacterial Biotransformation: Compound metabolized
//
COMPOUND: CC#C[C@]1(O)CC[C@H]2[C@@H]3CCC4=CC(=O)CCC4=C3[C@@H](c3ccc(N(C)C)cc3)C[C@@]21C [MIFEPRISTONE]
Bacterial Biotransformation: Compound NOT metabolized

* * *

Assay: The drug is tested on WLS-038 corresponding to human gut metagenome with ENA study accession number: PRJEB37062 and ENA sample accession number: ERS12561745 for biotransformation under anaerobic condition. The drug concentrations were measured over 9 timepoints collected between 0 and 24 hours of incubation by liquid-chromatography-coupled mass spectrometry (LC–MS)
Details: 2 µM
OBSERVED PROPERTY: Bacterial Biotransformation

Reference set, count: 5
MOLECULE: CN(C)C(=O)Oc1cc(OC(=O)N(C)C)cc(C(O)CNC(C)(C)C)c1 (stereo not drawn)
Bacterial Biotransformation: Compound NOT metabolized
--
MOLECULE: Br.CN1CCC[C@@H]1Cc1c[nH]c2ccc(CCS(=O)(=O)c3ccccc3)cc12 [ELETRIPTAN HYDROBROMIDE]
Bacterial Biotransformation: Compound NOT metabolized
--
MOLECULE: CC(C)c1c(CN(C)C(C)Cc2ccccc2)n(C)n(-c2ccccc2)c1=O (stereo not drawn)
Bacterial Biotransformation: Compound metabolized
--
MOLECULE: CN1CCC[C@@H]1CCO[C@](C)(c1ccccc1)c1ccc(Cl)cc1.O=C(O)/C=C/C(=O)O [CLEMASTINE FUMARATE]
Bacterial Biotransformation: Compound metabolized
--
MOLECULE: CCOC(=O)[C@H](CCc1ccccc1)N[C@@H](C)C(=O)N1Cc2ccccc2C[C@H]1C(=O)O
Bacterial Biotransformation: Compound metabolized

For the molecule shown here, COc1ccc(CN2CCNCC2)c(OC)c1OC.Cl.Cl [TRIMETAZIDINE DIHYDROCHLORIDE] , give the reported Bacterial Biotransformation.
Compound NOT metabolized

Sample Nc1nc(NC2CC2)c2ncn([C@H]3C=C[C@@H](CO)C3)c2n1.Nc1nc(NC2CC2)c2ncn([C@H]3C=C[C@@H](CO)C3)c2n1.O=S(=O)(O)O [ABACAVIR SULFATE] — what was its Bacterial Biotransformation?
Compound NOT metabolized

May I ask what Bacterial Biotransformation has been recorded for CCN(CC)CCNC(=O)c1cc(S(C)(=O)=O)ccc1OC [TIAPRIDE] ?
Compound NOT metabolized
